- study-target: CYP3A4 (Homo sapiens, UniProt P08684)
- Construct: purchased Corning; host or cells: baculovirus-transfected insect cell microsomes (Supersomes)
- Sequence (P08684 whole entry): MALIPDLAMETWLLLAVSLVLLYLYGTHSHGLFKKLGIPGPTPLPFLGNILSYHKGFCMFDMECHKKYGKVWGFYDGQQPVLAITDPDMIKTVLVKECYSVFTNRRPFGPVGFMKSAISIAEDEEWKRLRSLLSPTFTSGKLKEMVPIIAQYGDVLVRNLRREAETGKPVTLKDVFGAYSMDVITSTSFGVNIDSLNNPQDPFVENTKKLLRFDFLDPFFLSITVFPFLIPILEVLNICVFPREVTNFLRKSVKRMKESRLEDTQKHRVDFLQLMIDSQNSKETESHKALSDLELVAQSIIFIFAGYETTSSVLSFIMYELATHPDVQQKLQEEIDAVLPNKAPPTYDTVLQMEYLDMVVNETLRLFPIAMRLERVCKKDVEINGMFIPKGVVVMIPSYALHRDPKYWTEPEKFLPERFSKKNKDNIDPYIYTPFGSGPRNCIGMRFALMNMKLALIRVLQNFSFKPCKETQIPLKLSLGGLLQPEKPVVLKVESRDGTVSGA
- method-summary: Monooxygenases activity screening, CYP3A4
- Type: in vitro ADME
- Set-up: key: +, detected; –: −, not detected
- conditions: 25 μM 4F-MDMB-BINACA, 50 pmol/ml enzyme, 30 min, 37°C, duplicate
reported-property: Detection of metabolite in incubation with CYP3A4

>>> val("COC(=O)[C@@H](NC(=O)c1nn(CCCCO)c2ccccc12)C(C)(C)C")
"–"
>>> val("CC(C)(C)C(NC(=O)c1nn(CCCCF)c2ccccc12)C(=O)O (centres unmarked)")
"–"
>>> val("O=C(O)c1nn(CCCCF)c2ccccc12")
"–"
>>> val("COC(=O)[C@@H](NC(=O)c1n[nH]c2ccccc12)C(C)(C)C")
"+"
>>> val("COC(=O)[C@@H](NC(=O)c1nn(CCCCF)c2ccccc12)C(C)(C)CO")
"–"

* * *

- Test system: zebrafish larvae
- method-summary: In vivo maximum-tolerated concentration (MTC) study in zebrafish larvae
- Parameters: species or system zebrafish (Danio rerio)
- conditions: 24 h exposure via medium
reported-property: Concentration considered non-toxic for zebrafish larvae (4 dpf) (µM)

>>> val("CCC(=O)n1cc2c3c(cccc31)C1=C[C@@H](C(=O)N(CC)CC)CN(C)[C@@H]1C2 [Metabolite 1P-LSD, 1-propionyl-d-lysergic acid diethylamide]")
100
>>> val("COC(=O)C(NC(=O)c1nn(CCCCF)c2ccccc12)C(C)(C)C (centres unmarked) [4F-MDMB-BINACA]")
25
>>> val("COc1ccccc1CNC(C)Cc1ccc(OC)c(OC)c1 (centres unmarked) [3,4-DMA-NBOMe]")
100
>>> val("CCCCC(C(=O)c1ccc(F)cc1)N1CCCC1 (stereo not drawn) [Metabolite 4F-PHP, 4-fluoro-alpha-pyrrolidinohexiophenone]")
100
>>> val("CCCC(NCC)C(=O)c1ccc2c(c1)OCO2 (centres unmarked) [Ephylone, N-ethylnorpentylone]")
100

* * *

Absolute peak area, Zebrafish larvae [100 µM] listing for selected compounds.
- System: zebrafish larvae
- method-summary: Zebrafish larvae exposure, metabolite identification by LC-HRMS/MS
- conditions: 100 µM parent NPS in medium, larvae 4 dpf, 24 h, larvae extract, one replicate of n = 3; n.d. = not detected
reported-property: Absolute peak area, Zebrafish larvae [100 µM]

>>> val("CCN(CC)C(=O)[C@@H]1C=C2c3cccc4[nH]cc(c34)C[C@H]2NC1")
"1.07E+07"
>>> val("CCCC(NCC)C(=O)c1ccc2c(c1)OCO2 (centres unmarked)")
"3.57E+09"
>>> val("COc1ccc(CC(C)N)cc1OC (centres unmarked)")
"3.29E+07"
>>> val("CCCCC(C(=O)c1ccc(F)cc1)[N+]1([O-])CCCC1 (centres unmarked)")
"2.50E+06"
>>> val("CCNC(=O)[C@@H]1C=C2c3cccc4[nH]cc(c34)C[C@H]2NC1")
"3.30E+05"
>>> val("CC(CCC(C(=O)c1ccc(F)cc1)N1CCCC1)OC1OC(C(=O)O)C(O)C(O)C1O (centres unmarked)")
"1.15E+06"
>>> val("CCNC(=O)[C@@H]1C=C2c3cccc4[nH]cc(c34)C[C@H]2N(C)C1")
"6.17E+07"
>>> val("CCCC(NCC)C(O)c1ccc2c(c1)OCO2 (centres unmarked)")
"7.64E+06"
>>> val("CCN(CCO)C(=O)C1C=C2c3cccc4[nH]cc(c34)CC2N(C)C1 (centres unmarked)")
"3.90E+06"
>>> val("CCNC(=O)[C@@H]1C=C2c3cccc4c3c(cn4C(=O)CC)C[C@H]2NC1")
"4.11E+05"
>>> val("CC(O)CCC(C(=O)c1ccc(F)cc1)N1CCCC1 (centres unmarked)")
"7.71E+06"
>>> val("CCCC(C(=O)c1ccc2c(c1)OCO2)N(O)CC (centres unmarked)")
"1.10E+06"
>>> val("CCN(CC)C(=O)[C@@H]1C=C2c3cccc4[nH]cc(c34)C[C@H]2N(C)C1")
"1.25E+09"
>>> val("CCCCC(C(=O)c1ccc(F)cc1)N1CCC(=O)C1 (centres unmarked)")
"7.58E+04"
>>> val("CCCC(NCC)C(=O)c1ccc(O)c(O)c1 (centres unmarked)")
"4.44E+06"
>>> val("CCC(=O)n1cc2c3c(cccc31)C1=C[C@@H](C(=O)N(CC)CCO)CN(C)[C@@H]1C2")
"3.31E+07"
>>> val("CCC(=O)n1cc2c3c(cccc31)C1=C[C@@H](C(=O)O)CN(C)[C@@H]1C2")
"1.07E+06"
>>> val("CC(O)CCC(C(O)c1ccc(F)cc1)N1CCCC1 (centres unmarked)")
"3.78E+07"
>>> val("CCC(=O)n1cc2c3c(cccc31)C1=C[C@@H](C(=O)N(CC)CC)CN[C@@H]1C2")
"3.77E+07"
>>> val("CCC(=O)n1cc2c3c(cccc31)C1=C[C@@H](C(=O)N(CC)CC)CN(C)[C@@H]1C2 [Metabolite 1P-LSD, 1-propionyl-d-lysergic acid diethylamide]")
"2.92E+09"
